# Tested on: R. microplus (Mozo strain) larvae
# protocol-summary: Larval Immersion Test (LIT)
# Type: in vivo
# condition-notes: compounds 1.0 mM, 10 min immersion, 24 h

{"molecule": "O=C(/C=C/c1ccccn1)c1ccccc1O", "study-system": "R. microplus (Mozo strain) larvae", "readout-units": "%", "% of Mortality LIT": 100}
{"molecule": "Cc1ccc(/N=C/N(C)/C=N/c2ccc(C)cc2C)c(C)c1 [Amitraz, reference compound]", "study-system": "R. microplus (Mozo strain) larvae", "readout-units": "%", "% of Mortality LIT": 100}
{"molecule": "O=C(/C=C/c1cccs1)/C=C/c1cccs1", "study-system": "R. microplus (Mozo strain) larvae", "readout-units": "%", "% of Mortality LIT": 36}
{"molecule": "Cc1c(/C=C/C(=O)c2ccccc2O)no[n+]1[O-]", "study-system": "R. microplus (Mozo strain) larvae", "readout-units": "%", "% of Mortality LIT": 50}

###

# study-system: UniProtKB A8B3A8
# protocol-summary: biochemical
# condition-notes: RmTIM; read-out: IC50
Measured IC50, listed per entry for reference.

{"molecule": "COc1cc(/C=C/C(=O)CC(=O)/C=C/[c-]2cccc2)ccc1O.[Fe+2].c1cc[cH-]c1", "study-system": "UniProtKB A8B3A8", "IC50": "10 µM"}
{"molecule": "O=c1cc(O)n(Cc2ccccc2)c(=S)n1Cc1ccccc1", "study-system": "UniProtKB A8B3A8", "IC50": "> 50 µM"}
{"molecule": "CN=C1C=CC(=C(c2ccc(N(C)C)cc2)c2ccc(N(C)C)cc2)C=C1", "study-system": "UniProtKB A8B3A8", "IC50": "< 10 µM"}
{"molecule": "COc1ccc(/C=C/c2ccc3no[n+]([O-])c3c2)cc1", "study-system": "UniProtKB A8B3A8", "IC50": "< 10 µM"}
{"molecule": "FC(F)(F)C1=CSC(Nc2ccccc2)N1Cc1ccco1 (stereo not drawn)", "study-system": "UniProtKB A8B3A8", "IC50": "< 10 µM"}
{"molecule": "O=C(N/N=C/C=C/c1ccco1)c1ccccn1", "study-system": "UniProtKB A8B3A8", "IC50": "< 10 µM"}
{"molecule": "COc1cc(/C=C/c2cc(/C=C/[c-]3cccc3)[nH]n2)ccc1O.[Fe+2].c1cc[cH-]c1", "study-system": "UniProtKB A8B3A8", "IC50": "25 µM"}
{"molecule": "O=C(/C=C/c1ccsc1)/C=C/c1ccsc1", "study-system": "UniProtKB A8B3A8", "IC50": "< 10 µM"}
{"molecule": "O=C1/C(=C2\\Nc3ccccc3C2=O)Nc2ccccc21", "study-system": "UniProtKB A8B3A8", "IC50": "< 10 µM"}

###

# study-system: R. microplus triosephosphate isomerase (RmTIM) (Rhipicephalus microplus, UniProt A8B3A8)
# Sequence (A8B3A8 entry or part of it): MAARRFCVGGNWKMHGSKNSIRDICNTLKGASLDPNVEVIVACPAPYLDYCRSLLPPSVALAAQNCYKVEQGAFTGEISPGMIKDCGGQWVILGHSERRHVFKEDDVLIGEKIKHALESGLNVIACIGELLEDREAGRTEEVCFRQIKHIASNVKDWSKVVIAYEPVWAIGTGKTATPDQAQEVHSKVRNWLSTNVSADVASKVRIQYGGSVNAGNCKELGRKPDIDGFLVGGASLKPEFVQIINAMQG
# protocol-summary: biochemical
# condition-notes: at 10 µM (*), 1 h incubation; read-out: % Inhibition of Enzymatic Activity of RmTIM
Measured inhibition at 10 µM values are reported for all entries that follow.

{"molecule": "O=C1/C(=C/c2ccccc2)CCC/C1=C\\c1ccccc1 [compound 799]", "inhibition at 10 µM [%]": 88}
{"molecule": "O=C(/C=C/c1ccsc1)/C=C/c1ccsc1 [compound 1387]", "inhibition at 10 µM [%]": 100}
{"molecule": "O=C1/C(=C2\\Nc3ccccc3C2=O)Nc2ccccc21 [compound 879]", "inhibition at 10 µM [%]": 95}
{"molecule": "COc1ccc(/C=C/c2ccc3no[n+]([O-])c3c2)cc1 [compound 1404]", "inhibition at 10 µM [%]": 100}
{"molecule": "FC(F)(F)C1=CSC(Nc2ccccc2)N1Cc1ccco1 (stereo not shown) [compound 1385]", "inhibition at 10 µM [%]": 89}
{"molecule": "O=C(N/N=C/C=C/c1ccco1)c1ccccn1 [compound 1367]", "inhibition at 10 µM [%]": 82}
{"molecule": "CN=C1C=CC(=C(c2ccc(N(C)C)cc2)c2ccc(N(C)C)cc2)C=C1 [compound 1386]", "inhibition at 10 µM [%]": 100}

###

# Test system: fully engorged females of the Mozo susceptible strain of R. microplus
# protocol-summary: Adult Immersion Test (AIT)
# Format: in vivo
# condition-notes: adult females
value-kind: LC50 (µM)

{"molecule": "O=C(/C=C/c1ccccn1)c1ccccc1O [compound 885]", "value-kind": "LC50", "readout-units": "µM", "value-observed": 1000}

###

# study-system: UniProt A8B3A8
# protocol-summary: biochemical
# condition-notes: RmTIM; read-out: IC50
Recorded IC50 for the following compounds

{"compound": "O=C1/C(=C/c2ccccc2)CCC/C1=C\\c1ccccc1 [compound 799]", "IC50": "< 10 µM"}
{"compound": "Clc1ccc(-c2csc(/N=C/C=C/c3ccco3)n2)cc1 [compound 910]", "IC50": "23 µM"}
{"compound": "O=C1C(Cl)=C(Oc2cccc3ccccc23)C(=O)c2ccccc21 [compound 1408]", "IC50": "> 50 µM"}

###

compounds and their reported inhibition at 100 µM
# study-system: R. microplus triosephosphate isomerase (RmTIM) (Rhipicephalus microplus, UniProt A8B3A8)
# protocol-summary: biochemical
# condition-notes: at 100 µM (**), 1 h incubation; read-out: % Inhibition of Enzymatic Activity of RmTIM
value-kind: inhibition at 100 µM (%)

{"compound": "O=C(N/N=C/C=C/c1ccco1)c1cnn(-c2ccccc2)c1", "readout-units": "%", "value-observed": 38}
{"compound": "Clc1ccc(-c2csc(/N=C/C=C/c3ccco3)n2)cc1", "readout-units": "%", "value-observed": 60}
{"compound": "CC(/C=N/NC(=[Se])NCCN1CCOCC1)=C\\c1ccco1", "readout-units": "%", "value-observed": 77}
{"compound": "COc1ccc(/C=C2\\CCCC3C2=NN(c2ccccn2)C3c2ccc(OC)cc2)cc1 (centres unmarked)", "readout-units": "%", "value-observed": 0}
{"compound": "O=C1C(Cl)=C(Oc2cccc3ccccc23)C(=O)c2ccccc21", "readout-units": "%", "value-observed": 72}

###

Measured % of Mortality AIT accompanies every entry in the list below.
# Tested on: fully engorged females of the Mozo susceptible strain of R. microplus
# protocol-summary: Adult Immersion Test (AIT)
# Format: in vivo
# condition-notes: compounds 1.5 mM, 15 min immersion, 14 days

{"compound": "Cc1ccc(/C=C/C=N/N2CCN(C/C=C/c3ccccc3)CC2)o1 [compound 903]", "study-system": "fully engorged females of the Mozo susceptible strain of R. microplus", "% of Mortality AIT": "10 ± 1%"}
{"compound": "C(=C\\c1ccco1)/C=N/N1CCN(C/C=C/c2ccccc2)CC1 [compound 912]", "study-system": "fully engorged females of the Mozo susceptible strain of R. microplus", "% of Mortality AIT": "30 ± 8%"}
{"compound": "O=C(/C=C/c1cccs1)/C=C/c1cccs1 [compound 796]", "study-system": "fully engorged females of the Mozo susceptible strain of R. microplus", "% of Mortality AIT": "20 ± 1%"}
{"compound": "Cc1ccc(/N=C/N(C)/C=N/c2ccc(C)cc2C)c(C)c1 [Amitraz, reference compound]", "study-system": "fully engorged females of the Mozo susceptible strain of R. microplus", "% of Mortality AIT": "100%"}
{"compound": "O=C(/C=C/c1ccco1)/C=C/c1ccco1 [compound 795]", "study-system": "fully engorged females of the Mozo susceptible strain of R. microplus", "% of Mortality AIT": "70 ± 7%"}
{"compound": "COc1cc(/C=C/C(=O)CC(=O)/C=C/c2ccc(O)c(OC)c2)ccc1O [compound 906, curcumin]", "study-system": "fully engorged females of the Mozo susceptible strain of R. microplus", "% of Mortality AIT": "60 ± 8%"}
{"compound": "O=C(/C=C/c1ccccn1)c1ccccc1O [compound 885]", "study-system": "fully engorged females of the Mozo susceptible strain of R. microplus", "% of Mortality AIT": "100 ± 9%"}

###

# study-system: Homo sapiens triosephosphate isomerase (HsTIM) (Homo sapiens)
# Construct: made in house; host or cells: Escherichia coli
# Sequence (P60174 whole entry): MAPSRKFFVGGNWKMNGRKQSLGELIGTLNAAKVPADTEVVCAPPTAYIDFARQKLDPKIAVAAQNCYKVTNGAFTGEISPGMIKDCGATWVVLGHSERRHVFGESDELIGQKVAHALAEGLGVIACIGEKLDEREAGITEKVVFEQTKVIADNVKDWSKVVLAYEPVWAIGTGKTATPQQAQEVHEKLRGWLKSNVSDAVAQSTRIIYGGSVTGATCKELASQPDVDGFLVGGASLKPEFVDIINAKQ
# protocol-summary: Enzymatic activity of TIM, coupled enzyme assay
# Type: biochemical
Recorded inhibition at 10 µM, one value per entry.

{"molecular-string": "Clc1ccc(-c2csc(/N=C/C=C/c3ccco3)n2)cc1", "inhibition at 10 µM": "0%"}
{"molecular-string": "O=C(/C=C/c1ccsc1)/C=C/c1ccsc1", "inhibition at 10 µM": "0%"}
{"molecular-string": "CC(/C=N/NC(=[Se])NCCN1CCOCC1)=C\\c1ccco1", "inhibition at 10 µM": "0%"}
